Assay: Volume of drug distribution in monkey at 0.3 mg/kg, iv
Type: ADME, organism-based, Macaca mulatta
Conditions: rhesus monkey, in vivo, read-out: Vdss
Measured parameter: Vd (L/kg)

> print(dat)
                               given.smiles  measured.parameter  output.unit  endpoint.value
1  CCNC(=O)c1cc2c(-c3cc(C(C)(C)O)ccc3Oc3c(C)cc(F)cc3C)cn(C)c(=O)c2[nH]1                  Vd         L/kg             3.4

###

Target: Bromodomain testis-specific protein (Homo sapiens)
Test: Inhibition of BRDT BD1 (unknown origin) after 1 hr by TR-FRET assay
Measured parameter: Ki (nM)

> print(dat)
                                   compound                     target.or.test.system  output.unit  endpoint.value
1  CCNC(=O)c1cc2c(-c3cc(C(C)(C)O)ccc3Oc3c(C)cc(F)cc3C)cn(C)c(=O)c2[nH]1 [ABBV-744]  Bromodomain testis-specific protein (Homo sapiens)           nM             917

###

System: NCI-H1299
Experiment: Antiproliferative activity against human H1299 cells assessed as reduction in cell viability after 5 days by CellTiter-Glo assay
Type: functional, cell-based
Settings: NCI-H1299, 120 h
In this section we review reported IC50 values for a set of molecules.
Measured parameter: IC50 (nM)

> print(dat)
                                    molecule  measured.parameter  endpoint.value
 1  CCNC(=O)c1cc2c(-c3cc(S(=O)(=O)CC)ccc3Oc3ccccc3Cl)cn(C)c(=O)c2[nH]1                IC50             340
 2  CCNC(=O)c1cc2c(-c3ccccc3Cc3c(C)cccc3C)cn(C)c(=O)c2[nH]1                IC50            4200
 3  CCNC(=O)c1cc2c(-c3cc(S(=O)(=O)CC)ccc3-n3ccc4cccc(C)c43)cn(C)c(=O)c2[nH]1                IC50            1900
 4  CCNC(=O)c1cc2c(-c3cc(NS(=O)(=O)CC)ccc3Oc3c(C)cc(F)cc3C)cn(C)c(=O)c2[nH]1                IC50             970
 5  CCNC(=O)c1cc2c(-c3cc(S(=O)(=O)CC)ccc3Oc3c(C)cccc3C(C)(C)C)cn(C)c(=O)c2[nH]1                IC50            3200
 6  Cc1cc(F)cc(C)c1Oc1ccc(C(C)(C)O)cc1-c1cn(C)c(=O)c2[nH]c(C(=O)NC3CC3)cc12                IC50            1900
 7  CCNC(=O)c1cc2c(-c3cc(NC(=O)OC)ccc3Oc3c(C)cc(F)cc3C)cn(C)c(=O)c2[nH]1                IC50            2400
 8  CCNC(=O)c1cc2c(-c3cc(S(N)(=O)=O)ccc3Oc3c(C)cccc3C)cn(C)c(=O)c2[nH]1                IC50            3000
 9  CCNC(=O)c1cc2c(-c3cc(CO)ccc3Oc3c(C)cccc3C)cn(C)c(=O)c2[nH]1                IC50            3000
10  CCNC(=O)c1cc2c(-c3cc(S(=O)(=O)CC)ccc3Oc3c(C)cccc3C#N)cn(C)c(=O)c2[nH]1                IC50             730
11  CCNC(=O)c1cc2c(-c3cc(S(=O)(=O)CC)ccc3Oc3c(C)cc(F)cc3C)cn(C)c(=O)c2[nH]1                IC50             810
12  CCNC(=O)c1cc2c(-c3cc(S(=O)(=O)CC)ccc3-n3ccc4ccccc43)cn(C)c(=O)c2[nH]1                IC50            1300
13  CCNC(=O)c1cc2c(-c3cc(S(=O)(=O)CC)ccc3N3CCc4cccc(C)c43)cn(C)c(=O)c2[nH]1                IC50             340
14  Cc1cccc(C)c1Oc1ccc(C(C)(C)O)cc1-c1cn(C)c(=O)c2[nH]c(C(=O)NC(C)(C)C)cc12                IC50            1400
15  CCNC(=O)c1cc2c(-c3cc(S(C)(=O)=O)ccc3Oc3ccc(F)cc3F)cn(C)c(=O)c2[nH]1                IC50             370
16  Cc1cc(F)cc(C)c1Oc1ccc(C(C)(C)O)cc1-c1cn(C)c(=O)c2[nH]c(C(=O)NC3(C)CC3(F)F)cc12 (configuration not stated)                IC50            2900
17  Cn1cc(-c2cc(S(C)(=O)=O)ccc2Oc2ccc(F)cc2F)c2cc(C(N)=O)[nH]c2c1=O                IC50             600
